Experiment Summary: High-throughput drug toxicity screening in the BPDCN cell line Gen2.2 (AID 1224824);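 note: cells exposed to compounds for 48 h before reading; 100% = DMSO and 0% = bortezomib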
Condition Summary: Gen2.2 BPDCN cells; at 45.8 µM (top of the series) unless noted
Measured Attribute: cell viability, % of control (lower = more cytotoxic) (%)
The figure you give is taken to be in %; do not add the unit.

{"Compound": "Cc1ccccc1C(C(=O)NC1CCCC1)N(C(=O)Cn1cnc2ccccc21)c1cccc(F)c1 (stereo unspecified)", "Recorded Result": 30.2}
{"Compound": "COc1ccc2nc(S(=O)Cc3ncc(C)c(OC)c3C)[nH]c2c1 (stereo unspecified)", "Recorded Result": 138}
{"Compound": "Cc1ccc(-n2nc(C(C)(C)C)cc2NC(=O)Nc2ccc(OCCN3CCOCC3)c3ccccc23)cc1", "Recorded Result": 240}
{"Compound": "N[C@@H]1CONC1=O", "Recorded Result": 150}
{"Compound": "O=C(Nc1nc2ccccc2n1CCN1CCOCC1)c1cccc([N+](=O)[O-])c1", "Recorded Result": 43.3}
{"Compound": "COc1cc2nccc(Oc3ccc(NC(=O)NC4CC4)c(Cl)c3)c2cc1C(N)=O", "Recorded Result": 10.1}
{"Compound": "Cc1cnc(NC(=O)C2=C(O)c3ccccc3S(=O)(=O)N2C)s1", "Recorded Result": 60.9}
{"Compound": "Cc1c(CN2CCN(C(=O)C(C)C)CC2)sc2c(N3CCOCC3)nc(-c3cnc(N)nc3)nc12", "Recorded Result": 2.32}

Exercise: Given the compound Cc1ccccc1C(OCCN(C)C)c1ccccc1 (stereo unspecified) , what is its reported cell viability, % of control (lower = more cytotoxic)?
Key: 149

Exercise: Again, but for O=C1CCC(N2C(=O)c3ccccc3C2=O)C(=O)N1 (stereo unspecified)
Key: 167

Exercise: Next compound: "Cc1cc(SCc2sc(-c3ccc(C(F)(F)F)cc3)nc2C)ccc1OCC(=O)O"
Key: 101

* * *

System: CP185
Experiment Summary: qHTS profiling for inhibitors of Plasmodium falciparum proliferation (AID 504749); note: nearly all actives have a fitted effect of over 60% in size
Condition Summary: P. falciparum in erythrocytes, SYBR Green DNA, 72 h; series mostly up to 28.7 µM
Inconclusive results are not listed. Calls of active or inactive are those of the source. Calls follow the shape of the dose curve; as a rule, active = well fitted inhibition curve with a large enough effect; inconclusive = small, poorly fitted or top-dose-only effect; inactive = flat fitted curve, though single readings scatter.
Hi! Could you answer with just one of these? label 1 for active, label 0 for inactive

Use the examples below as a reference point.
{"Molecule": "Cc1ccc(N(CC2=NCCN2)c2cccc(O)c2)cc1", "Assigned Class": "label 0"}
{"Molecule": "Clc1ccc(Nc2nnc(Cc3ccncc3)c3ccccc23)cc1", "Assigned Class": "label 0"}
{"Molecule": "Cc1c(C)c2c(c(C)c1O)CCC(C)(COc1ccc(CC3SC(=O)NC3=O)cc1)O2 (stereo not drawn)", "Assigned Class": "label 0"}
{"Molecule": "NC(=O)c1cnccn1", "Assigned Class": "label 0"}
{"Molecule": "CC(C)C[C@H](NC(=O)[C@@H](O)[C@H](N)Cc1ccccc1)C(=O)O", "Assigned Class": "label 1"}
{"Molecule": "NS(=O)(=O)c1cc2c(cc1Cl)NC=NS2(=O)=O", "Assigned Class": "label 0"}
{"Molecule": "CCCc1nc2c(C)cc(-c3nc4ccccc4n3C)cc2n1Cc1ccc(-c2ccccc2C(=O)O)cc1", "Assigned Class": "label 0"}
{"Molecule": "CCCCNc1cc(C(=O)O)cc(S(N)(=O)=O)c1Oc1ccccc1", "Assigned Class": "label 0"}

We now examine a further molecule.
Exercise: What classification did NCCCC(N)(C(=O)O)C(F)F (stereo not drawn) end up with in this test?
Key: label 0

* * *

Experiment Summary: Quantitative High-Throughput drug screen in 47 multiple myeloma cell lines against the NCATS MIPE library collection: PCM6_Riken cell viability assay (AID 1919870); note: nearly all actives have a fitted effect of over 30% in size
Condition Summary: CellTiter-Glo ATP, 48 h; series mostly up to 45.8 µM
Results filed as inconclusive are left out. Activity calls are given as the source filed them. Calls follow the shape of the dose curve; as a rule, active = well fitted cell-killing curve with a large enough effect; inconclusive = small, poorly fitted or top-dose-only effect, or effect the other way; inactive = no such curve, though single readings can be large or run the other way.
Bench note: report the call from 1 (yes) for active, 0 (no) for inactive

Worked examples follow.
{"Compound": "CC(=O)Oc1ccccc1C(=O)O", "Assigned Class": "1 (yes)"}
{"Compound": "CC(c1cc2ccccc2s1)N(O)C(N)=O (stereo not drawn)", "Assigned Class": "0 (no)"}
{"Compound": "O=C(c1cc(Cc2n[nH]c(=O)c3ccccc23)ccc1F)N1CCN(C(=O)C2CC2)CC1", "Assigned Class": "1 (yes)"}
{"Compound": "Cc1cc2c(C(C)C)c(O)c(O)c(C=O)c2c(O)c1-c1c(C)cc2c(C(C)C)c(O)c(O)c(C=O)c2c1O", "Assigned Class": "1 (yes)"}

Exercise: Assay outcome for "COc1ccc(-c2ccc3c(N4CCOC[C@H]4C)nc(N4CCOC[C@H]4C)nc3n2)cc1CO" : what was it?
Key: 1 (yes)

* * *

Experiment Summary: Primary qHTS for inhibitors of nuclear receptor binding SET domain protein 2 (NSD2) in an RCH-ACV wild type WT cells (2C) (AID 1645877); note: nearly all actives have a fitted effect of over 70% in size
Condition Summary: RCH-ACV (leukaemia line) NSD2 WT (2C) viability, CellTiter-Glo, 72 h; series mostly up to 44.9 µM
Results filed as inconclusive are left out. The source made the active and inactive calls. The call rests on the fitted dose curve; in most records, active means well fitted inhibition curve with a large enough effect; inconclusive means small, poorly fitted or top-dose-only effect; inactive means no such curve, though single readings can be large or run the other way.
Bench note: report the call from active, inactive

Record excerpt, results attached:
{"Compound": "CC(C)(C)NCC(O)c1ccc(O)c(CO)c1 (centres undefined)", "Assigned Class": "inactive"}
{"Compound": "O=C(O)[C@@H](c1ccc(OCc2ccc3ccccc3n2)cc1)C1CCCC1", "Assigned Class": "inactive"}
{"Compound": "COc1c(Cl)cc2c([nH]c3cnccc32)c1NC(=O)c1cccnc1C", "Assigned Class": "active"}
{"Compound": "Cc1[nH]c(=O)c(C#N)cc1-c1ccc2nccn2c1", "Assigned Class": "inactive"}
{"Compound": "COCCNCCCn1c(C(=O)CF)c(-c2ccc(C)cc2)c2c(N)ncnc21", "Assigned Class": "active"}
{"Compound": "Cc1cc2c(C(C)C)c(O)c(O)c(C=O)c2c(O)c1-c1c(C)cc2c(C(C)C)c(O)c(O)c(C=O)c2c1O", "Assigned Class": "active"}

Exercise: Recorded call for "CC(C)(Sc1ccc(CCN(CCCCC2CCCCC2)C(=O)NC2CCCCC2)cc1)C(=O)O" ?
Key: inactive

Exercise: Please answer likewise for "O=c1[nH]cnc2[nH]ncc12"
Key: inactive

Exercise: Likewise for CCc1ccc(CCOc2ccc(CC3SC(=O)NC3=O)cc2)nc1 (centres undefined) ?
Key: inactive

Exercise: Can you handle "O=c1[nH]c(-c2ccc(C(F)(F)F)cc2)nc2c1CSCC2" next?
Key: inactive

Exercise: Follow-up entry: "CC(=O)Oc1ccccc1C(=O)O"
Key: inactive

Exercise: // next record "Cc1n[nH]c(C)c1Cc1sc2c(c1C(=O)N1C[C@H](O)CO1)c(=O)n(C)c(=O)n2CC(C)C"
Key: inactive

Exercise: Thanks! And "Cc1c(CCOc2ccc(C(=O)O)cc2)c2cc(Cl)ccc2n1C(c1ccccc1)c1ccccc1" ?
Key: inactive

* * *

Experiment Summary: qHTS for differential inhibitors of proliferation of Plasmodium falciparum line W2 (AID 1883);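 note: parasites grown with compound for 72 h before lysis and staining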; note: potency is the fitted concentration of half-maximal effect
Condition Summary: Plasmodium falciparum W2 proliferation inhibition; series mostly up to 28.7 µM
Inconclusive results are not listed. Active and inactive are the calls of the source. Calls follow the shape of the dose curve; as a rule, active = well fitted curve in the direction sought with a large enough effect; inconclusive = small, poorly fitted or top-dose-only effect, or another doubt; inactive = no such curve, though single readings can be large or run the other way.
Measured Attribute: Potency

Past entries and their recorded results:
{"Molecule": "Cc1[nH]c(=O)c(C#N)cc1-c1ccncc1", "Potency": "inactive"}
{"Molecule": "CCOC(=O)C1=C[C@]2(CC)CCCN3CCc4c(n1c1ccccc41)[C@@H]32", "Potency": "14.1 µM (active)"}
{"Molecule": "O=C1CCC(N2C(=O)c3ccccc3C2=O)C(=O)N1 (centres undefined)", "Potency": "inactive"}
{"Molecule": "O=c1[nH]cnc2[nH]ncc12", "Potency": "inactive"}
{"Molecule": "NCCc1ccc(O)c(O)c1", "Potency": "10 µM (active)"}

Exercise: Need Potency of "Cc1ccc(N(CC2=NCCN2)c2cccc(O)c2)cc1" , thanks.
Key: 11.2 µM (active)

Exercise: Request: "CCOC(=O)N1CCC(=C2c3ccc(Cl)cc3CCc3cccnc32)CC1"
Key: 5.01 µM (active)

* * *

Experiment Summary: qHTS profiling of the MIPE4 collection as inhibitors of Plasmodium falciparum (DD2) proliferation (Rep 2) (AID 743346)
Condition Summary: P. falciparum Dd2 in erythrocytes, SYBR Green DNA, 72 h; at 28.5 µM (top of the series) unless noted
Please note: parasite growth, % of control (lower = inhibition) exactly at 60% is no (0). Only values below 60% get yes (1).

Some entries whose results are on file:
{"Molecule": "NNCCc1ccccc1", "Assigned Class": "no (0)"}
{"Molecule": "CN([C@@H](Cc1ccc(OS(=O)(=O)c2cccc3cnccc23)cc1)C(=O)N1CCN(c2ccccc2)CC1)S(=O)(=O)c1cccc2cnccc12", "Assigned Class": "yes (1)"}
{"Molecule": "Cc1cnc(NC(=O)C2=C(O)c3ccccc3S(=O)(=O)N2C)s1", "Assigned Class": "no (0)"}

Exercise: Below 60% on parasite growth, % of control (lower = inhibition)? Entry "CCOC(=O)N[C@@H]1CC[C@@H]2[C@@H](C1)C[C@H]1C(=O)O[C@H](C)[C@H]1[C@@H]2C=Cc1ccc(-c2cccc(F)c2)cn1"
Key: yes (1)

Exercise: And then "Cn1c(=O)c(F)c(Nc2ccc(I)cc2F)c2c(=O)n(C[C@@H](O)CO)cnc21" , what is it?
Key: yes (1)

Exercise: Another: COc1cc(Oc2ccnc3cc(OC)c(OC)cc23)ccc1NC(=O)NC(C)c1nccs1 (stereo unspecified)
Key: yes (1)

Exercise: Note, next up: "O=C(O)[C@@H](c1ccc(OCc2ccc3ccccc3n2)cc1)C1CCCC1"
Key: no (0)

Exercise: What about this molecule? "Cc1cc2c(F)c(Oc3ncnn4cc(OC[C@@H](C)O)c(C)c34)ccc2[nH]1"
Key: yes (1)

Exercise: Record: "O=c1[nH]c(-c2ccc(C(F)(F)F)cc2)nc2c1CSCC2"
Key: no (0)

Exercise: Now this one: "CS(=O)(=O)c1ccc(C(=O)Nc2ccc(Cl)c(-c3ccccn3)c2)c(Cl)c1"
Key: no (0)

Exercise: Another molecule to look at: "CCOc1cc(C(=O)Nc2ccc(Cl)c(-c3nc4ccccc4[nH]3)c2)cc(OCC)c1OCC"
Key: yes (1)

Exercise: What do you have for "NCCc1ccc(O)c(O)c1" ?
Key: yes (1)

Exercise: Same question, "O=C(C1CC1)N1CC[C@@H](Cn2c(-c3ccc(-c4ccc5occc5c4)cc3)nc3cnccc32)C1" this time
Key: yes (1)

Exercise: Would you mind doing "Nc1ccc(S(=O)(=O)Nc2ccnn2-c2ccccc2)cc1" as well?
Key: no (0)

Exercise: Param item: "O=C(NOC[C@H](O)CO)c1ccc(F)c(F)c1Nc1ccc(I)cc1F"
Key: no (0)

Exercise: Next: "Cn1cnc([N+](=O)[O-])c1Sc1ncnc2nc[nH]c12"
Key: yes (1)

Exercise: Consider next the molecule "Nc1nc2c(ncn2COCCO)c(=O)[nH]1" in the same way.
Key: no (0)

Exercise: Another molecule to check: "c1ccc([C@H]2CN3CCSC3=N2)cc1"
Key: no (0)

Exercise: // query: OC(CCN1CCCCC1)(c1ccccc1)C1CC2C=CC1C2 (stereo unspecified)
Key: yes (1)

Exercise: How about this molecule: "Cc1c(CCOc2ccc(C(=O)O)cc2)c2cc(Cl)ccc2n1C(c1ccccc1)c1ccccc1"
Key: yes (1)

Exercise: What do we get for "O=C(O)CCc1ccc(NCc2cccc(Oc3ccccc3)c2)cc1" ?
Key: no (0)

Exercise: Input "O=c1n(CCCN2CCN(c3cccc(Cl)c3)CC2)nc2ccccn12"
Key: no (0)

Exercise: Another molecule to look at: "COc1nc(-c2ccc3c(c2)OCO3)n(-c2ccc(NC(=O)CSc3ccccc3)cc2)n1"
Key: no (0)

Exercise: Please do the same for "Nc1nccc(-c2ccc3noc(-c4ccc(Cl)cc4)c3c2)n1" as well.
Key: no (0)

Exercise: What do you have for "Cc1cccc(-c2nn(C(=S)Nc3ccccc3)cc2-c2ccnc3ccccc23)n1" ?
Key: no (0)
